Each recorded value in this set is attributed to patent US20260042834A1.

subject_of_test: T1, corticotropin-releasing hormone (CRH) peptide (human and mouse (same sequence), not fully specified)
T1 peptide: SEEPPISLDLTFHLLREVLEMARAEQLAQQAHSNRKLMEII
test_method_notes: cell-based or functional assay
Parameter hCRHR1 Luciferase Reporter Assay IC50: see the listing below.
Kindly answer with a numeric value in nM, unit omitted.

>  <binder>
PR302309-10 (antibody, human IgG1, kappa, V domains shown) VH: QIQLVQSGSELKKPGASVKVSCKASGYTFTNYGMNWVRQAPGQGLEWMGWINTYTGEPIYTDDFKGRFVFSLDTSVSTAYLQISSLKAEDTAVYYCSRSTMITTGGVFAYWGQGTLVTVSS VL: DVVMTQTPLSLSVTPGQPASISCRSSQTIVHSDGNTYLEWYLQKPGQSPQLLIYKVSNRFSGVPDRFSGSGSGTDFTLKISRVEAEDLGVYYCFQGSHVPWTFGGGTKVEIKR

>  <unit_name>
nM

>  <hCRHR1 Luciferase Reporter Assay IC50>
3.2

$$$$
>  <binder>
PR302309-14 (antibody, human IgG1, kappa, V domains shown) VH: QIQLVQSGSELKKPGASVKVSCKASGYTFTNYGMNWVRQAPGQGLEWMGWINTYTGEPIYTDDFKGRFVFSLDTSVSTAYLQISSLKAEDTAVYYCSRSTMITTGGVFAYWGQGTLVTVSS VL: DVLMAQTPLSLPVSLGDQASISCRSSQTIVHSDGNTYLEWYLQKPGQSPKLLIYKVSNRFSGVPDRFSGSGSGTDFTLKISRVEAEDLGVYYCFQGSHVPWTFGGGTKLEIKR

>  <unit_name>
nM

>  <hCRHR1 Luciferase Reporter Assay IC50>
1.68

$$$$
>  <binder>
PR302309-15 (antibody, human IgG1, kappa, V domains shown) VH: QVQLVQSGAEVKKPGASVKVSCKASGYTFTNYGMNWVRQAPGQRLEWMGWINTYTGEPIYTDDFKGRVTITRDTSASTAYMELSSLRSEDTAVYYCARSTMITTGGVFAYWGQGTLVTVSS VL: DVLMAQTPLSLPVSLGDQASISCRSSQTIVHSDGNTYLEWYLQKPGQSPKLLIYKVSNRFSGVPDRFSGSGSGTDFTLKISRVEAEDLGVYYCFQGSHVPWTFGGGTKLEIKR

>  <unit_name>
nM

>  <hCRHR1 Luciferase Reporter Assay IC50>
10.5

$$$$
>  <binder>
PR302309-2 (antibody, human IgG1, kappa, V domains shown) VH: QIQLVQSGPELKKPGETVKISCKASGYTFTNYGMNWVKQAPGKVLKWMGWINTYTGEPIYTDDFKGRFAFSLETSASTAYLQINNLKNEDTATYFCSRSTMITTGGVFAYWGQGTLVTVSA VL: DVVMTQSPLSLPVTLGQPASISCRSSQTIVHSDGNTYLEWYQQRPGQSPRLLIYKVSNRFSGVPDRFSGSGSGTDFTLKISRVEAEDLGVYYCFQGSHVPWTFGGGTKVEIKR

>  <unit_name>
nM

>  <hCRHR1 Luciferase Reporter Assay IC50>
0.773

$$$$

Kindly review the next binder as well.
Reported hCRHR1 Luciferase Reporter Assay IC50 for PR302309-5 (antibody, human IgG1, kappa, V domains shown) VH: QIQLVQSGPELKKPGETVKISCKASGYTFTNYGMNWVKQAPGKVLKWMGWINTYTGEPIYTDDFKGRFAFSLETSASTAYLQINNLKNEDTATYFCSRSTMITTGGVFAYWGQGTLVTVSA VL: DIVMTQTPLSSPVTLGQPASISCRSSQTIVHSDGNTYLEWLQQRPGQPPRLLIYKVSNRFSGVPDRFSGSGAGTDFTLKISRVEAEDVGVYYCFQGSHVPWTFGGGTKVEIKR : what is it?
0.454
